// merged dataset of pKi values, system = Serine protease 1 (Homo sapiens, UniProt P07477), multiple refs
Sequence (P07477 whole entry): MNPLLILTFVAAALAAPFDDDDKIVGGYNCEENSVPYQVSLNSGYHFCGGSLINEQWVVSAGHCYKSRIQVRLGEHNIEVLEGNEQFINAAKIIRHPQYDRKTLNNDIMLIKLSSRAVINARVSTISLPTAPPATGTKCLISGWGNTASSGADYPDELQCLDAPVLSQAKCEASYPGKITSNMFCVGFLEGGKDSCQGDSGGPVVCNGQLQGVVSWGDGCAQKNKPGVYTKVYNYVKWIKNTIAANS
pKi: −log10 of the molar value.
measure: pKi

> print(dat)
                                    molecule  valueprefix  result
 1  Cc1ccc(NC(=O)OCc2ccccc2)c(=O)n1CC(=O)NCC1CCN(C(=N)N)CC1            =    6.46
 2  CS(=O)(=O)c1ccccc1-c1ccc(NC(=O)c2cc(C(F)(F)F)nn2-c2ccccc2CN)c(F)c1            <    5.60
 3  Cl.NC1CCC(CNC(=O)[C@@H]2CCCN2C(=O)CC(C2CCCCC2)C2CCCCC2)CC1 (stereo partly specified)            =    5.60
 4  CS(=O)(=O)NCC1(C(=O)Nc2ccc(-c3ccccc3S(N)(=O)=O)cn2)CC(c2ccc(Cl)c(N)c2)=NO1 (stereo in doubt)            <    5.10
 5  N=C(N)c1ccc(CNC(=O)N2CCN(C(=O)O[C@H]3CCC[C@@H](OC(=O)N4CCN(C(=O)NCc5ccc(C(=N)N)cc5)CC4)CCC3)CC2)cc1            =    4.60
 6  CCc1nc2c([N+](=O)[O-])c(OC3CCN(C(C)=N)CC3)ccc2n1Cc1ccc2ccc(C(=N)N)cc2c1            =    8.30
 7  N=C(N)c1cccc(CN2CC[C@H](NS(=O)(=O)c3ccc4cnccc4c3)C2=O)c1            <    5.54
 8  CCOCC1(C(=O)Nc2ncc(-c3ccccc3S(N)(=O)=O)cn2)CC(c2cccc(C(=N)N)c2)=NO1 (stereo unspecified)            =    6.48
 9  CCOCC1(C(=O)Nc2ccc(-c3ccccc3S(N)(=O)=O)cn2)CC(c2cccc(C(=N)N)c2)=NO1 (stereo unspecified)            =    7.40
10  CC(C)(C)OC(=O)CCc1nc(Cc2ccccc2)n(CC(=O)N[C@@H](CCCCN)B2O[C@@H]3C[C@@H]4C[C@@H](C4(C)C)[C@]3(C)O2)n1            =    8.85
11  Cc1ccc(NC(=O)CC(c2ccccc2)c2ccccc2)c(=O)n1CC(=O)NCC1CCN(C(=N)N)CC1            =    6.05
12  CN1CCC(N[C@@H](CC(=O)O)C(=O)N2CCCC[C@H]2CCOC2CCN(C(=N)N)CC2)CC1            =    5.32
13  Cc1nc(N)ccc1CNC(=O)Cn1c(C)cnc(NCCc2ccccc2)c1=O            =    5.74
14  N=C(N)c1cccc(CN2CC[C@H](NS(=O)(=O)c3cc4c(Cl)nccc4s3)C2=O)c1            <    5.54
15  N=C(N)c1ccc(OCC[C@@H]2CCCCN2C(=O)[C@@H](CC2CCCCC2)NCC(=O)O)cc1            =    7.05
16  CCc1nc2cc(OC3CCN(C(C)=N)CC3)ccc2n1Cc1ccc(-c2ccc(C(=N)N)cc2)cc1            =    6.82

* * *

pKi: −log10 of the molar value.
// merged dataset of pKi values, system = Serine protease 1 (Homo sapiens, UniProt P07477), multiple refs
measure: pKi

> print(dat)
                                   compound  result
1  N=C(N)Nc1ccc(CNC(=O)N2CCN(C(=O)O[C@H]3CCC[C@@H](OC(=O)N4CCN(C(=O)CCCn5ccnc5)CC4)CCC3)CC2)cc1    3.80
2  N=C(N)c1cccc(C2=NOC(Cn3cncn3)(C(=O)Nc3ccc(-c4ccccc4S(N)(=O)=O)cc3)C2)c1 (centres undefined)    7.33
3  NCc1ccccc1CNC(=O)[C@@H]1CCCN1C(=O)[C@H](N)Cc1ccccc1    3.97
4  Cc1nc(N)ccc1CNC(=O)Cn1c(C)cc2c(c1=O)NC(=O)[C@](C)(CC(C)C)C2    6.07

* * *

// merged dataset of Ki values, system = Serine protease 1 (Homo sapiens, UniProt P07477), multiple refs
measure: Ki (µM)

compound	measurementUnit	valuePrefix	result
COC(=O)[C@H](Cc1cccc(C(=N)N)c1)[C@@H](C)NC(=O)c1ccc(-c2cccc[n+]2[O-])cc1	µM	=	0.036
COc1cccc(-c2csc(-c3cc(C(=N)N)sc3SC)n2)c1	µM	=	0.86
Nc1noc2ccc(-n3nnnc3C(=O)Nc3ccc(-c4ccccc4S(N)(=O)=O)cc3)cc12	µM	>	1.6
N=C(N)c1ccc(CNC(=O)CNC(=O)[C@@H](CO)NS(=O)(=O)/C=C/c2ccccc2)cc1	µM	=	1.7
O=C(NC1CCc2n[nH]cc2C1)[C@@H]1CCCN1C(=O)[C@@H](CC1CCCCC1)NS(=O)(=O)Cc1ccccc1 (stereo partly drawn)	µM	>	68.3
N=C(N)c1cccc(N2CCCCN(C3CCN(Cc4ccccn4)CC3)C2=O)c1	µM	=	0.12
COC(=O)CC1(C(=O)Nc2cccc(C(=N)N)c2)CC(c2cccc(C(=N)N)c2)=NO1 (stereo not drawn)	µM	=	0.23
CC(C)COCC1(C(=O)Nc2ccc(-c3ccccc3S(N)(=O)=O)cc2)CC(c2cccc(C(=N)N)c2)=NO1 (stereo not drawn)	µM	=	0.14
Nc1ncc2c(n1)CCC(CNC(=O)[C@@H]1CCCN1C(=O)[C@@H](CC1CCCCC1)NS(=O)(=O)Cc1ccccc1)C2 (stereo partly drawn)	µM	>	68.3
N=C(N)c1ccc(O)c(CN2CC[C@H](NS(=O)(=O)c3cc4ccnc(Cl)c4s3)C2=O)c1	µM	>	2.9
CCS(=O)(=O)CC1(C(=O)Nc2ccc(-c3ccccc3S(N)(=O)=O)cn2)CC(c2cccc(C(=N)N)c2)=NO1 (stereo not drawn)	µM	=	0.072
Cc1cnc(NCCc2ccccn2)c(=O)n1CC(=O)NCc1ccc2[nH]ccc2c1	µM	=	290
CC(=O)N[C@H](Cc1ccccc1)C(=O)N1CCC[C@H]1C(=O)N[C@@H](CCCNc1cc(Cl)nc(N)n1)B1O[C@@H]2CC3CC(C3(C)C)[C@]2(C)O1 (stereo partly drawn)	µM	>	1.2
NCC12CCC(CNC(=O)N3CCN(C(=O)O[C@H]4CCC[C@@H](OC(=O)N5CCN(C(=O)NCC67CCC(CN)(CC6)CC7)CC5)CCC4)CC3)(CC1)CC2	µM	=	95
CCc1nc2c(NC(C)=O)c(OC3CCN(C(C)=N)CC3)ccc2n1Cc1ccc2ccc(C(=N)N)cc2c1	µM	=	0.025
CCC[C@H]1Cc2cc(C)n(CC(=O)NCc3ccc(N)nc3C)c(=O)c2NC1=O	µM	=	22
COc1ccc2ccc(S(=O)(=O)N[C@H]3CCN(Cc4ccc5ccnc(N)c5c4)C3=O)cc2c1	µM	>	2.9
N=C(N)Nc1ccc(CNC(=O)CCCC(=O)NCc2ccc(CNC(=O)CCCC(=O)NCc3ccc(NC(=N)N)cc3)cc2)cc1	µM	=	70
Cc1ccc(NS(=O)(=O)Cc2ccccc2)c(=O)n1CC(=O)NCc1ccccc1N	µM	>	1000
Cc1cnc(NCCc2ccccn2)c(=O)n1CC(=O)NCc1cc2cc[nH]c2cn1	µM	=	200
O=C1CN(S(=O)(=O)c2cc3ccc(Cl)cc3s2)CCN1Cc1nc2cc[nH]cc-2n1	µM	>	2.9
NCc1cccc(-n2nnnc2C(=O)Nc2ccc(-c3ccccc3S(N)(=O)=O)cc2)c1	µM	=	0.069
Nc1cc(C2=NOC(Cn3cncn3)(C(=O)Nc3ccc(-c4ccccc4S(N)(=O)=O)cn3)C2)ccc1Cl (racemic)	µM	>	4.2
COc1ccc(-n2nc(C(F)(F)F)cc2C(=O)Nc2ccc(-c3ccccc3S(N)(=O)=O)cc2)c(CN)c1	µM	>	1.6
N=C(N)c1ccc(CCNC(=O)N2CCN(C(=O)O[C@H]3CCC[C@@H](OC(=O)N4CCN(C(=O)NCCc5ccc(C(=N)N)cc5)CC4)CCC3)CC2)cc1	µM	=	66
CC(=N)N1CCC(Oc2ccc3c(nc(C)n3Cc3ccc4ccc(C(=N)N)cc4c3)c2[N+](=O)[O-])CC1	µM	=	0.003
N=C(N)c1cccc(CN(NS(=O)(=O)c2ccc3ccccc3c2)C(=O)N2CCCCCC2)c1	µM	=	0.14
N=C(N)c1ccc(O)c(/C=C/CNC(=O)c2ccc(-c3ccccn3)s2)c1	µM	=	1.4
COC(=O)[C@H](Cc1cccc(C(=N)N)c1)[C@@H](C)NC(=O)c1ccc(-c2cccc(C(N)=O)c2)cc1	µM	=	0.09
N=C(N)c1ccc(CCC(CC(=O)N2CCCC2)c2cccc(C(=N)N)c2)cc1 (stereo not drawn)	µM	=	0.44
COCCC1(C(=O)Nc2ccc(-c3ccccc3S(N)(=O)=O)cc2)CC(c2cccc(C(=N)N)c2)=NO1 (stereo not drawn)	µM	=	0.098
N=C(N)Nc1ccc(CNC(=O)N2CCN(C(=O)O[C@H]3CCC[C@@H](OC(=O)N4CCN(C(=O)NCCCN)CC4)CCC3)CC2)cc1	µM	=	138
